Reference for the values: ChEMBL document CHEMBL2040738

Method notes: Inhibition of goat Ca2+-ATPase assessed as liberation of inorganic phosphate preincubated for 5 mins measured after 30 mins following ATP addition by colorimetric analysis in absence of Mg2+
Design: species or system Capra hircus
Condition parameters: read-out: I50
Measurement kind: pIC50
Give bare numbers, as −log10 of the molar value.

Here are 3 molecules together with their reported answers.
Exercise: Field request: pIC50 | item: CCOC(=O)C1=C(C)NC(=O)NC1c1ccc(O)cc1 (centres undefined)
Solution: 3.69

Exercise: Continue with CCOC(=O)C1=C(C)NC(=O)NC1c1ccccc1Cl (centres undefined)
Solution: 3.61

Exercise: Continue with CCOC(=O)C1=C(C)NC(=O)NC1c1ccccc1 (centres undefined)
Solution: 3.65

More entries:
Exercise: Field request: pIC50 | item: CCOC(=O)C1=C(C)NC(=O)NC1c1cccc([N+](=O)[O-])c1 (centres undefined)
Solution: 3.55
